- System: TOV-21G: human ovarian adenocarcinoma cells
- MEASUREMENT PROTOCOL: MTT cytotoxicity assay on TOV-21G cells
- Type: cell-based
- MEASUREMENT SETUP: Homo sapiens, TOV21G; MTT, 72 h incubation, n = 3; NA: noncytotoxic at the concentrations tested
Exercise: for every item that follows, state its recorded pIC50.
Field pIC50 (float): negative decimal logarithm of the concentration in molar.

**Query** Supply measured pIC50 of CCCc1cc(/C=C/C(=O)c2ccccc2)c(O)c(OC)c1 [compound 11] in your reply.
**Result** 4.92

**Query** Give me measured pIC50, please, for this compound: CCCc1cc(/C=C/C(=O)c2ccc(C(=O)/C=C/c3cc(CCC)cc(OC)c3O)cc2)c(O)c(OC)c1 [compound 12]
**Result** 4.47

**Query** Identify measured pIC50 associated with CCCc1cc(/C=C/C(=O)c2ccc(C)cc2)c(OC(C)=O)c(OC)c1 [compound 2]
**Result** 5.92

**Query** Note down pIC50 recorded for COc1cc(N)cc(/C=C/C(=O)c2ccc(C)cc2)c1O [compound 8]
**Result** 4.27

**Query** Output pIC50 of CCCc1cc(OC)c(O)c(C(=O)/C=C/c2ccccc2)c1 [compound 15]
**Result** 5.27

**Query** Look up and state reported pIC50 for CCCc1cc(/C=C/C(=O)c2ccc(C)cc2)c(OC)c(OC)c1 [compound 3]
**Result** 5.52

**Query** Answer with reported pIC50 of CCCc1cc(OC)c(O)c(C(=O)/C=C/c2ccc(O)cc2)c1 [compound 17]
**Result** 4.41

**Query** Report pIC50, nothing else, for this compound: CCCc1cc(/C=C/C(=O)c2ccc(C)cc2)c(O)c(OC)c1 [compound 1]
**Result** 5.14

**Query** Give pIC50 for CCCc1cc(OC)c(O)c(C(=O)/C=C/c2ccc(C)cc2)c1 [compound 16]
**Result** 4.96

====

- Test system: T24: human urinary bladder carcinoma cells
- MEASUREMENT PROTOCOL: MTT cytotoxicity assay on T24 cells
- Type: cell-based
- MEASUREMENT SETUP: IC50 MRC-5/IC50 T24
# label = y if SI (T24) >= 0.3 else n

**Query** Hi team, for COc1cccc2c1C(=O)c1c(O)c3c(c(O)c1C2=O)C[C@@](O)(C(=O)CO)C[C@@H]3O[C@H]1C[C@H](N)[C@H](O)[C@H](C)O1 [doxorubicin, reference compound] , is the recorded SI (T24) at or above 0.3?
**Result** n

**Query** Decide: is the reported value of SI (T24) for CCCc1cc(OC)c(O)c(C(=O)/C=C/c2ccc(C)cc2)c1 equal to or greater than 0.3?
**Result** y

**Query** Form field: SI (T24) at least 0.3? Entry: CCCc1cc(/C=C/C(=O)c2ccc(O)cc2)c(O)c(OC)c1
**Result** n

**Query** Quick check, SI (T24) >= 0.3? COc1cc([N+](=O)[O-])cc(/C=C/C(=O)c2ccc(C)cc2)c1O
**Result** n

**Query** State whether the measured SI (T24) reaches 0.3, counting equality as reaching it, for CCCc1cc(OC)c(O)c(C(=O)/C=C/c2ccc(F)cc2)c1
**Result** y

**Query** Is the recorded value of SI (T24) equal to or greater than 0.3 for this compound? CCCc1cc(OC)c(O)c(C(=O)/C=C/c2ccccc2)c1
**Result** y

**Query** Exam item: decide whether the reported SI (T24) for CCCc1cc(/C=C/C(=O)c2ccc(C)cc2)c(OC)c(OC)c1 is at least 0.3.
**Result** y
